measured.target: IRAK3-ePL (Homo sapiens, UniProt Q9Y616)
Construct: expressed in transfected cells; host or cells: 293T CRBN OE / GSPT1 G575N KI cells, lentiviral transduction, puromycin selection
assay.info: IRAK3-ePL Overexpressing Degradation Assay
Format: cell-based
measurement.context: HEK-293T; IRAK3-ePL Lenti-X 293T CRBN/GSPT1 G575N cells, overnight incubation, top dose 10 μM; maximum percentage loss of target protein
Please respond with condition met when measured Dmax is strictly beneath 20%, and with condition not met in all other cases.

{"compound": "Cc1cccc(-c2cnc(Nc3ccc(C4CCN(CCNC(=O)COc5ccc6c(c5)C(=O)N(C5CCC(=O)NC5=O)C6=O)CC4)cc3)c3nccn23)c1 (stereo not drawn)", "class.assignment": "condition met"}
{"compound": "Cc1cccc(-c2cnc(Nc3ccc(N4CCN(C(=O)CCCNC(=O)COc5cccc6c5C(=O)N(C5CCC(=O)NC5=O)C6=O)CC4)cc3)c3nccn23)c1 (stereo not drawn)", "class.assignment": "condition met"}
{"compound": "Cc1cccc(-c2cnc(Nc3ccc(N4CCN(C(=O)COc5cccc6c5C(=O)N(C5CCC(=O)NC5=O)C6=O)CC4)cc3)c3nccn23)c1 (stereo not drawn)", "class.assignment": "condition met"}
{"compound": "Cc1cccc(-c2cnc(Nc3cnn(C4CCN(CCNC(=O)COc5ccc6c(c5)C(=O)N(C5CCC(=O)NC5=O)C6=O)CC4)c3)c3nccn23)c1 (stereo not drawn)", "class.assignment": "condition not met"}
{"compound": "Cc1cccc(-c2cnc(Nc3cccc(C4CCN(CCNC(=O)COc5ccc6c(c5)C(=O)N(C5CCC(=O)NC5=O)C6=O)CC4)c3)c3nccn23)c1 (stereo not drawn)", "class.assignment": "condition met"}
{"compound": "Cc1cccc(-c2cnc(Nc3ccc(N4CCN(C(=O)CCOCCNC(=O)COc5ccc6c(c5)C(=O)N(C5CCC(=O)NC5=O)C6=O)CC4)cc3)c3nccn23)c1 (stereo not drawn)", "class.assignment": "condition not met"}

----------
measured.target: IRAK3 (Homo sapiens)
Construct: IRAK Endogenous HTRF Degradation Assay; endogenous in cells
assay.info: IRAK3 Biochemical Binding Assay (LanthaScreen Eu Kinase Binding)
measurement.context: TR-FRET tracer displacement, 1 hour at room temperature
Procedure: The LanthaScreen® Eu Kinase Binding assay was performed as described by the vendor (ThermoFisher Scientific Waltham, MA). […] TR-FRET signal of the interaction (λex340/λem 665/λem 615) was read at room temperature with a delay time of 100 μs and an integration time of 200 μs using an Envision plate reader. […] Using these assays, IC50, Dmax, EC50, and DC50 values of the following compounds were determined. […]
pIC50: −log10 of the molar value.

{"molecule": "Cc1cccc(-c2cnc(Nc3ccc(N4CCN(C(=O)COc5cccc6c5C(=O)N(C5CCC(=O)NC5=O)C6=O)CC4)cc3)c3nccn23)c1 (stereo not drawn)", "pIC50": 6.56}
{"molecule": "Cc1cccc(-c2cnc(Nc3cnn(C4CCN(C5CCC6(CC5)CCN(C(=O)c5ccc7c(c5)CN(C5CCC(=O)NC5=O)C7=O)CC6)CC4)c3)c3nccn23)c1 (stereo not drawn)", "pIC50": 8.70}
{"molecule": "Cc1cccc(-c2cnc(Nc3ccc(N4CCN(C(=O)COc5ccc6c(c5)C(=O)N(C5CCC(=O)NC5=O)C6=O)CC4)cc3)c3nccn23)c1 (stereo not drawn)", "pIC50": 6.89}

----------
measured.target: IRAK3 (Homo sapiens)
Construct: IRAK Endogenous HTRF Degradation Assay; endogenous in cells
Sequence (Q9Y616 1-596): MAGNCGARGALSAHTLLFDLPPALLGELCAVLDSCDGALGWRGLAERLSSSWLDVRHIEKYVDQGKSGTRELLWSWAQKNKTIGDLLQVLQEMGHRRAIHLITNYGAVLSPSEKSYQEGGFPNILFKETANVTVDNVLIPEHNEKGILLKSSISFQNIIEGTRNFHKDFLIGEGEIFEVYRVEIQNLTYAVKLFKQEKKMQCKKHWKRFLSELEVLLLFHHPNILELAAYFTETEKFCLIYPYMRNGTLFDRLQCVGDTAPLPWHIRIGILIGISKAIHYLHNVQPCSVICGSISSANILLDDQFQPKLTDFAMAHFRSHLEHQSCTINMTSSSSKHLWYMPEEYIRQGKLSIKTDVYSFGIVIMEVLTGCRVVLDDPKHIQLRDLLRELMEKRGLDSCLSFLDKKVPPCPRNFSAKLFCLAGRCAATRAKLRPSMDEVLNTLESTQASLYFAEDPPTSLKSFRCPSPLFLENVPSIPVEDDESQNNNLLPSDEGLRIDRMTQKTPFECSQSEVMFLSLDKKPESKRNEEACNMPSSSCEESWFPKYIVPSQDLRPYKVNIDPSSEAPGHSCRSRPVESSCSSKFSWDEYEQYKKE
assay.info: IRAK Endogenous HTRF Degradation Assay
Format: cell-based
measurement.context: endogenous IRAK3, overnight incubation; % Dmax=100−Ymin
Below: a set of entries, each annotated with reported Dmax.

{"compound": "Cc1cccc(-c2cnc(Nc3cccc(N4CCN(CCNC(=O)COc5ccc6c(c5)C(=O)N(C5CCC(=O)NC5=O)C6=O)CC4)c3)c3nccn23)c1 (stereo not drawn) [Compound 11]", "measured.target": "IRAK3 (Homo sapiens)", "Dmax, %": 21}
{"compound": "Cc1cccc(-c2cnc(Nc3ccc(N4CCN(CCNC(=O)COc5ccc6c(c5)C(=O)N(C5CCC(=O)NC5=O)C6=O)CC4)cc3)c3nccn23)c1 (stereo not drawn) [Compound 7]", "measured.target": "IRAK3 (Homo sapiens)", "Dmax, %": 27}
{"compound": "Cc1cccc(-c2cnc(Nc3ccc(N4CCN(C(=O)CCCNC(=O)COc5cccc6c5C(=O)N(C5CCC(=O)NC5=O)C6=O)CC4)cc3)c3nccn23)c1 (stereo not drawn) [Compound 2]", "measured.target": "IRAK3 (Homo sapiens)", "Dmax, %": 13}
{"compound": "Cc1cccc(-c2cnc(Nc3ccc(N4CCN(C(=O)COc5cccc6c5C(=O)N(C5CCC(=O)NC5=O)C6=O)CC4)cc3)c3nccn23)c1 (stereo not drawn) [Compound 1]", "measured.target": "IRAK3 (Homo sapiens)", "Dmax, %": 7}
{"compound": "Cc1cccc(-c2cnc(Nc3ccc(C4CCN(CCNC(=O)COc5ccc6c(c5)C(=O)N(C5CCC(=O)NC5=O)C6=O)CC4)cc3)c3nccn23)c1 (stereo not drawn) [Compound 10]", "measured.target": "IRAK3 (Homo sapiens)", "Dmax, %": 30}
{"compound": "Cc1cccc(-c2cnc(Nc3ccc(N4CCN(C(=O)CCOCCNC(=O)COc5ccc6c(c5)C(=O)N(C5CCC(=O)NC5=O)C6=O)CC4)cc3)c3nccn23)c1 (stereo not drawn) [Compound 6]", "measured.target": "IRAK3 (Homo sapiens)", "Dmax, %": 13}
{"compound": "Cc1cccc(-c2cnc(Nc3ccc(N4CCN(C(=O)CCCNC(=O)COc5ccc6c(c5)C(=O)N(C5CCC(=O)NC5=O)C6=O)CC4)cc3)c3nccn23)c1 (stereo not drawn) [Compound 5]", "measured.target": "IRAK3 (Homo sapiens)", "Dmax, %": 18}
{"compound": "Cc1cccc(-c2cnc(Nc3ccc(N4CCN(C(=O)COc5ccc6c(c5)C(=O)N(C5CCC(=O)NC5=O)C6=O)CC4)cc3)c3nccn23)c1 (stereo not drawn) [Compound 4]", "measured.target": "IRAK3 (Homo sapiens)", "Dmax, %": 4}
{"compound": "Cc1cccc(-c2cnc(Nc3cccc(C4CCN(CCNC(=O)COc5ccc6c(c5)C(=O)N(C5CCC(=O)NC5=O)C6=O)CC4)c3)c3nccn23)c1 (stereo not drawn) [Compound 9]", "measured.target": "IRAK3 (Homo sapiens)", "Dmax, %": 33}
{"compound": "Cc1cccc(-c2cnc(Nc3cnn(C4CCN(C5CCC6(CC5)CCN(C(=O)c5ccc7c(c5)CN(C5CCC(=O)NC5=O)C7=O)CC6)CC4)c3)c3nccn23)c1 (stereo not drawn) [Compound 12]", "measured.target": "IRAK3 (Homo sapiens)", "Dmax, %": 81}
{"compound": "Cc1cccc(-c2cnc(Nc3cnn(C4CCN(CCNC(=O)COc5ccc6c(c5)C(=O)N(C5CCC(=O)NC5=O)C6=O)CC4)c3)c3nccn23)c1 (stereo not drawn) [Compound 8]", "measured.target": "IRAK3 (Homo sapiens)", "Dmax, %": 73}
{"compound": "Cc1cccc(-c2cnc(Nc3ccc(N4CCN(C(=O)CCOCCNC(=O)COc5cccc6c5C(=O)N(C5CCC(=O)NC5=O)C6=O)CC4)cc3)c3nccn23)c1 (stereo not drawn) [Compound 3]", "measured.target": "IRAK3 (Homo sapiens)", "Dmax, %": 3}

----------
measured.target: IRAK3 (Homo sapiens)
Construct: IRAK Endogenous HTRF Degradation Assay; endogenous in cells
Sequence (Q9Y616 1-596): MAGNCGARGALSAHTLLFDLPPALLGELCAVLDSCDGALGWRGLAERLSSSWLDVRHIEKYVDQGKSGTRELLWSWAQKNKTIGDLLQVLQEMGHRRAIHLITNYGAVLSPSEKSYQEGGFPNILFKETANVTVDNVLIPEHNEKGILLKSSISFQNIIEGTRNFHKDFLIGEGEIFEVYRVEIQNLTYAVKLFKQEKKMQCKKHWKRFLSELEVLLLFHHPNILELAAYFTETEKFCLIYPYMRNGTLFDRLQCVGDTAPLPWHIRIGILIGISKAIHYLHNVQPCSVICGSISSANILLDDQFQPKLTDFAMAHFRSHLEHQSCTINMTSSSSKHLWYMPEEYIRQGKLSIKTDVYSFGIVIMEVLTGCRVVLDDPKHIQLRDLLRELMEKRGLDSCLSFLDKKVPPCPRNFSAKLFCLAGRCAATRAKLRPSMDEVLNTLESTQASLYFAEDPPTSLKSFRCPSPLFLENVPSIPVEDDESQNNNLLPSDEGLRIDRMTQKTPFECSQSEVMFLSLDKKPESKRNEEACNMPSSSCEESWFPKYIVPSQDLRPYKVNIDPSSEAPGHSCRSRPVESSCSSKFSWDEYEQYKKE
assay.info: IRAK Endogenous HTRF Degradation Assay
Assay type: cell-based
measurement.context: endogenous IRAK3, overnight incubation; concentration at which 50% degradation is achieved
Property: DC50; scope: individual molecules
reported.metric: DC50

{"molecule": "Cc1cccc(-c2cnc(Nc3ccc(N4CCN(C(=O)CCCNC(=O)COc5ccc6c(c5)C(=O)N(C5CCC(=O)NC5=O)C6=O)CC4)cc3)c3nccn23)c1 (stereo not drawn) [Compound 5]", "reported.metric": "DC50", "assay.result": "> 10 µM"}
{"molecule": "Cc1cccc(-c2cnc(Nc3ccc(N4CCN(C(=O)COc5cccc6c5C(=O)N(C5CCC(=O)NC5=O)C6=O)CC4)cc3)c3nccn23)c1 (stereo not drawn) [Compound 1]", "reported.metric": "DC50", "assay.result": "> 10 µM"}
{"molecule": "Cc1cccc(-c2cnc(Nc3ccc(N4CCN(C(=O)CCCNC(=O)COc5cccc6c5C(=O)N(C5CCC(=O)NC5=O)C6=O)CC4)cc3)c3nccn23)c1 (stereo not drawn) [Compound 2]", "reported.metric": "DC50", "assay.result": "> 10 µM"}
